Test: Homolysis of the NO–C bond measured by EPR
Conditions: t-BuPh, 81 °C
Description: Homolysis rate constants kd’ were measured by EPR and estimated using Equation (1) as reported many times in the literature. Further, Ea and kd were estimated using Equation (2). (1) ln([nitroxide]∞−[nitroxide]t/[nitroxide]∞)=−kd·t (2) Ea=−RT ln([…] kd′ )
Provide the recorded homolysis rate constant kd′ for the entries that follow.

# get_value(readout='homolysis rate constant kd′', item= CCOP(=O)(OCC)C(N(OC(C)c1cc(-c2ccccn2)nc(-c2ccccn2)c1)C(C)(C)CO[Si](C)(C)C(C)(C)C)C(C)(C)C (stereo not drawn) [(RS/SR)-6F] ) 2.7 10^−4s^−1

# get_value(readout='homolysis rate constant kd′', item= CCOP(=O)(OCC)C(N(OC(C)c1cc(-c2ccccc2)cc(-c2ccccc2)c1)C(C)(C)CO)C(C)(C)C (stereo not drawn) [(RR/SS)-2G] ) 3.8 10^−4s^−1

# get_value(readout='homolysis rate constant kd′', item= CCOP(=O)(OCC)C(N(OC(C)c1cc(-c2ccccn2)nc(-c2ccccn2)c1)C(C)(C)CO)C(C)(C)C (stereo not drawn) [(RS/SR)-2F] ) 5.3 10^−4s^−1

# get_value(readout='homolysis rate constant kd′', item= CCOP(=O)(OCC)C(N(OC(C)c1cc(-c2ccccn2)nc(-c2ccccn2)c1)C(C)(C)CO)C(C)(C)C (stereo not drawn) [(RR/SS)-2F] ) 7.0 10^−4s^−1

# get_value(readout='homolysis rate constant kd′', item= CCOP(=O)(OCC)C(N(OC(C)c1cc(-c2ccccc2)cc(-c2ccccc2)c1)C(C)(C)CO)C(C)(C)C (stereo not drawn) [(RS/SR)-2G] ) 3.7 10^−4s^−1

# get_value(readout='homolysis rate constant kd′', item= CCOP(=O)(OCC)C(N(OC(C)c1cc(-c2ccccn2)nc(-c2ccccn2)c1)C(C)(C)CO[Si](C)(C)C(C)(C)C)C(C)(C)C (stereo not drawn) [(RR/SS)-6F] ) 1.4 10^−4s^−1

====

System: Adult S. mansoni
Experiment: In vitro antischistosomal activity on adult worms
Assay type: cell-based, Schistosoma mansoni
Conditions: 100 µg/mL, observation up to 8 h (Table S1)
OUTCOME_MEASURE: Mean (±SD) survival time – Adult S. mansoni (h)
Give your result in h as a bare value.

# get_value(readout='Mean (±SD) survival time – Adult S. mansoni', item= CCOP(=O)(OCC)C(N(OC(C)c1ccc([N+](=O)[O-])cc1)C(C)(C)C)C(C)(C)C (stereo not drawn) [(RR/SS)-1v] ) 3.4

# get_value(readout='Mean (±SD) survival time – Adult S. mansoni', item= CCOP(=O)(OCC)C(N(OC(CN)c1ccccn1)C(C)(C)C)C(C)(C)C (stereo not drawn) [(RR/SS)-1g] ) 1.9

# get_value(readout='Mean (±SD) survival time – Adult S. mansoni', item= CCOP(=O)(OCC)C(N(OC(C)c1ccc(C)cc1)C(C)(C)C)C(C)(C)C (stereo not drawn) [(RS/SR)-1s] ) 3.3

# get_value(readout='Mean (±SD) survival time – Adult S. mansoni', item= CCOP(=O)(OCC)C(N(OC(C)c1cn(C)cn1)C(C)(C)C)C(C)(C)C (stereo not drawn) [(RS/SR)-1q] ) 1.3

====

Test: Cytotoxicity assay (MTT)
Details: African green monkey, Vero cells
OUTCOME_MEASURE: IC50 at 48 h (µM)
Give your result in µM as a bare value.

# get_value(readout='IC50 at 48 h', item= C[C@@H]1CC[C@H]2[C@@H](C)C(=O)O[C@@H]3O[C@@]4(C)CC[C@@H]1[C@]32OO4 [Artemisinin, reference compound] ) 160

# get_value(readout='IC50 at 48 h', item= CC(ON1C(C)(C)CC(O)CC1(C)C)c1cc(-c2ccccn2)nc(-c2ccccn2)c1 (racemic) [(R/S)-8F] ) 0.7

# get_value(readout='IC50 at 48 h', item= CCc1cc(-c2ccccn2)nc(-c2ccccn2)c1 ) 5.3
